Numbers sourced from the supplement of paper PMC4862054.

molecules and their reported normalised response
# Test system: MDA-MB-436
# Method Notes: normalised response (% of control), CellTiter-Glo; higher = more viable cells (100 = DMSO, 0 = benzethonium chloride kill control)
# Condition Description: incubation time: 72 h
Please reply with the bare figure in % and do not write the unit itself.

Problem: Consider the molecule COc1ccc(-c2ccc3c(N4CCOC[C@@H]4C)nc(N4CCOC[C@@H]4C)nc3n2)cc1CO [AZD8055] (100 nM) and give its measured normalised response.
Solution: 51.5

Problem: Please answer likewise for C/C(=C\c1csc(C)n1)[C@@H]1C[C@@H]2O[C@]2(C)CCC[C@H](C)[C@H](O)[C@@H](C)C(=O)C(C)(C)[C@@H](O)CC(=O)O1 [Patupilone] (10 nM)
Solution: 79.9

Problem: Please answer likewise for CC(C)c1c(C(=O)Nc2ccccc2)c(-c2ccccc2)c(-c2ccc(F)cc2)n1CC[C@@H](O)C[C@@H](O)CC(=O)O [Atorvastatin] (100 nM)
Solution: 91.5

Problem: Please answer likewise for COc1ccccc1S(=O)(=O)Nc1ccc2c(c1)CN(C)C(=O)N2 [PFI-1] (100 nM)
Solution: 104

Problem: Please answer likewise for Cn1c(=O)n(-c2ccc(C(C)(C)C#N)cc2)c2c3cc(-c4cnc5ccccc5c4)ccc3ncc21 [Dactolisib] (10 nM)
Solution: 65.9

Others:
Problem: Consider the molecule CCCCCCCCc1ccc(CCC(N)(CO)CO)cc1 [Fingolimod] (100 nM) and give its measured normalised response.
Solution: 100

Problem: Please answer likewise for C[C@]12CC[C@H](O)CC1=CC[C@@H]1[C@@H]2CC[C@]2(C)C(c3cccnc3)=CC[C@@H]12 [Abiraterone] (50 nM)
Solution: 99.7
